Test system: A375 melanoma
SETUP CONDITIONS: number of mice; i.v. qd x 1 at estimated MTD (Taxol 24 mg/kg, Taxotere 70 mg/kg); 6 mice/group (Taxotere 7)
Exercise: state measured Toxic Deaths for each of the compounds provided.
One number for each entry.

// solved cases for Toxic Deaths follow
- CC(=O)O[C@@]12CO[C@@H]1C[C@H](O)[C@@]1(C)C(=O)[C@H](OC(=O)C3CC3)C3=C(C)[C@@H](OC(=O)[C@H](O)[C@H](C=C(C)C)NC(=O)OC(C)(C)C)C[C@@](O)([C@@H](OC(=O)c4ccccc4)[C@H]21)C3(C)C: 0
- CCC(=O)O[C@H]1C(=O)[C@@]2(C)[C@H]([C@H](OC(=O)c3ccccc3)[C@]3(O)C[C@H](OC(=O)[C@H](O)[C@@H](NC(=O)c4ccccc4)C4CC4)C(C)=C1C3(C)C)[C@]1(OC(C)=O)CO[C@@H]1C[C@@H]2O: 1
- CC(=O)O[C@@]12CO[C@@H]1C[C@H](O)[C@@]1(C)C(=O)[C@H](OC(=O)C3CC3)C3=C(C)[C@@H](OC(=O)[C@H](O)[C@@H](NC(=O)OC(C)(C)C)c4cccs4)C[C@@](O)([C@@H](OC(=O)c4ccccc4)[C@H]21)C3(C)C: 6
- CC(=O)O[C@@]12CO[C@@H]1C[C@H](O)[C@@]1(C)C(=O)[C@H](O)C3=C(C)[C@@H](OC(=O)[C@H](O)[C@@H](NC(=O)OC(C)(C)C)c4ccccc4)C[C@@](O)([C@@H](OC(=O)c4ccccc4)[C@H]21)C3(C)C [Taxotere, docetaxel, reference compound]: 0
- CC(=O)O[C@H]1C(=O)[C@@]2(C)[C@H]([C@H](OC(=O)c3ccccc3)[C@]3(O)C[C@H](OC(=O)[C@H](O)[C@@H](NC(=O)c4ccccc4)c4ccccc4)C(C)=C1C3(C)C)[C@]1(OC(C)=O)CO[C@@H]1C[C@@H]2O [Taxol, paclitaxel, reference compound]: 2
- CCC(=O)O[C@H]1C(=O)[C@@]2(C)[C@H]([C@H](OC(=O)c3ccccc3)[C@]3(O)C[C@H](OC(=O)[C@H](O)[C@H](C=C(C)C)NC(=O)OC(C)(C)C)C(C)=C1C3(C)C)[C@]1(OC(C)=O)CO[C@@H]1C[C@@H]2O: 2
- CCC(=O)O[C@H]1C(=O)[C@@]2(C)[C@H]([C@H](OC(=O)c3ccccc3)[C@]3(O)C[C@H](OC(=O)[C@H](O)[C@@H](NC(=O)c4ccccc4)c4ccoc4)C(C)=C1C3(C)C)[C@]1(OC(C)=O)CO[C@@H]1C[C@@H]2O: 0
- CCCC(=O)O[C@H]1C(=O)[C@@]2(C)[C@H]([C@H](OC(=O)c3ccccc3)[C@]3(O)C[C@H](OC(=O)[C@H](O)[C@@H](NC(=O)OC(C)(C)C)c4ccsc4)C(C)=C1C3(C)C)[C@]1(OC(C)=O)CO[C@@H]1C[C@@H]2O: 3

Asked: Item under review: CCC(=O)O[C@H]1C(=O)[C@@]2(C)[C@H]([C@H](OC(=O)c3ccccc3)[C@]3(O)C[C@H](OC(=O)[C@H](O)[C@@H](NC(=O)OC(C)(C)C)c4ccccn4)C(C)=C1C3(C)C)[C@]1(OC(C)=O)CO[C@@H]1C[C@@H]2O . Reported Toxic Deaths?
Given back: 2
